In this section we review reported melting point values for a set of compounds.
REPORTED PROPERTY: melting point

* CNC(=O)c1cc2c(nc(C)n2C)c2c1CCC1(Cc3ccccc3C1)N2.CS(=O)(=O)O | 321 to 324 °C
* C=CCn1c(C)nc2c3c(c(C(=O)OC)cc21)CCC1(Cc2ccccc2C1)N3 | 142 to 142.5 °C
* Cc1nc2c3c(c(C(=O)NCCCO)cc2n1C)CCC1(Cc2ccccc2C1)N3 | 237 to 238 °C
* Cc1nc2c3c(c(C(=O)N4CC(O)C4)cc2n1C)CCC1(Cc2ccccc2C1)N3 | 171 to 172 °C
* Cc1nc2c3c(c(C(=O)N4CC(F)C4)cc2n1C)CCC1(Cc2ccccc2C1)N3 | 259 to 260 °C
* Cc1nc2c3c(c(C(=O)NCCO)cc2n1C)CCC1(Cc2ccccc2C1)N3 | 167 to 168 °C
* Cc1nc2c3c(c(C(=O)N(C)CCO)cc2n1C)CCC1(Cc2ccccc2C1)N3 | 194 to 195 °C
* CCNC(=O)c1cc2c(nc(C)n2C)c2c1CCC1(Cc3ccccc3C1)N2 | 223 to 224 °C
* C=CCn1c(C)nc2c3c(c(C(=O)OCC)cc21)CCC1(Cc2ccccc2C1)N3 | 150 °C
* Cc1nc2c3c(c(C(=O)N4CCOCC4)cc2n1C)CCC1(Cc2ccccc2C1)N3 | 284 to 285 °C
* COCCNC(=O)c1cc2c(nc(C)n2C)c2c1CCC1(Cc3ccccc3C1)N2 | 186 to 187 °C
* COCCCNC(=O)c1cc2c(nc(C)n2C)c2c1CCC1(Cc3ccccc3C1)N2 | 188 to 189 °C
* COCCN(C)C(=O)c1cc2c(nc(C)n2C)c2c1CCC1(Cc3ccccc3C1)N2 | 160 to 161 °C
* COCCNC(=O)c1cc2c(nc(C)n2C)c2c1CCC1(Cc3ccccc3C1)N2.Cl | 294 to 295 °C
* Cc1nc2c3c(c(C(=O)NC4CC4)cc2n1C)CCC1(Cc2ccccc2C1)N3 | 247 to 248 °C
* Cc1nc2c3c(c(C(=O)N(C)C[C@H](C)O)cc2n1C)CCC1(Cc2ccccc2C1)N3 | 258 to 259 °C
* CNC(=O)c1cc2[nH]c(C)nc2c2c1CCC1(Cc3ccccc3C1)N2 | 240 to 241 °C
* Cc1nc2c3c(c(C(=O)NC[C@H](C)O)cc2n1C)CCC1(Cc2ccccc2C1)N3 | 224 to 225 °C
* Cc1nc2c3c(c(C(N)=O)cc2n1C)CCC1(Cc2ccccc2C1)N3 | 272 to 273 °C
* CS(=O)(=O)O.Cc1nc2c3c(c(C(=O)NC4CC4)cc2n1C)CCC1(Cc2ccccc2C1)N3 | 308 to 309 °C
* CNC(=O)c1cc2c(nc(C)n2C)c2c1CCC1(Cc3ccccc3C1)N2 | 237 to 238 °C
* Cc1nc2c3c(c(CO)cc2n1C)CCC1(Cc2ccccc2C1)N3 | 272 to 274 °C
* CCOC(=O)c1cc2c(nc(C)n2C)c2c1CCC1(Cc3ccccc3C1)N2 | 167 to 168 °C
* Cc1nc2c3c(c(C(=O)NC4CC4)cc2n1C)CCC1(Cc2ccccc2C1)N3.O=C(O)C(=O)O | 242 to 243 °C
* Cc1nc2c3c(c(C(=O)N(C)C)cc2[nH]1)CCC1(Cc2ccccc2C1)N3 | 183 °C
* COCCNC(=O)c1cc2c(nc(C)n2C)c2c1CCC1(Cc3ccccc3C1)N2.O=C(O)/C=C\C(=O)O | 191 to 192 °C
* CNC(=O)c1cc2c(nc(C)n2C)c2c1CCC1(Cc3ccccc3C1)N2.O=C(O)CC(=O)O | 261 to 263 °C
* CNC(=O)c1cc2c(nc(C)n2C)c2c1CCC1(Cc3ccccc3C1)N2.Cl | 309 to 311 °C
* CCOCCNC(=O)c1cc2c(nc(C)n2C)c2c1CCC1(Cc3ccccc3C1)N2 | 180 to 181 °C
* Cc1nc2c3c(c(C(=O)N4CCC4)cc2n1C)CCC1(Cc2ccccc2C1)N3 | 222 to 223 °C
* Cc1nc2c3c(c(C(=O)N4CCCC4)cc2n1C)CCC1(Cc2ccccc2C1)N3 | 263 to 264 °C
* CC(=O)CNC(=O)c1cc2c(nc(C)n2C)c2c1CCC1(Cc3ccccc3C1)N2 | 222 to 223 °C
* Cc1nc2c3c(c(C(=O)N(C)C)cc2n1C)CCC1(Cc2ccccc2C1)N3 | 178 to 179 °C
* COCCNC(=O)c1cc2c(nc(C)n2C)c2c1CCC1(Cc3ccccc3C1)N2.O=C(O)CC(=O)O | 176 to 177 °C
